// values below are reported pIC50
# Test system: SK-MEL-28
# testDetails: Cytotoxicity against human SK-MEL-28 cells after 3 days by MTT assay
# Type: functional, cell-based
# particulars: SK-MEL-28, 72 h
// pIC50 here means minus log10 of the molar concentration (mol/L)

>  <smilesData>
CC(=O)N[C@@H]1CC[C@@]2(C)[C@H](CC[C@@H]3[C@@H]2CC[C@]2(C)[C@@H](c4ccc(=O)oc4)[C@@H](OC(C)=O)[C@H]4O[C@]342)C1

>  <pIC50>
5.46

$$$$
>  <smilesData>
C[C@H]1O[C@@H](O[C@H]2[C@@H](O)C[C@H](O[C@H]3[C@@H](O)C[C@H](O[C@H]4CC[C@@]5(C)[C@H](CC[C@@H]6[C@@H]5C[C@@H](O)[C@]5(C)[C@@H](C7=CC(=O)OC7)CC[C@]65O)C4)O[C@@H]3C)O[C@@H]2C)C[C@H](O)[C@@H]1O

>  <pIC50>
6.58

$$$$
>  <smilesData>
C[C@@H]1O[C@@H](O[C@H]2CC[C@]3(C=O)[C@H]4CC[C@]5(C)[C@@H](c6ccc(=O)oc6)CC[C@]5(O)[C@@H]4CC[C@]3(O)C2)[C@H](O)[C@H](O)[C@H]1O[C@@H]1O[C@H](CO)[C@@H](O)[C@H](O)[C@H]1O

>  <pIC50>
7.17

$$$$
>  <smilesData>
C[C@]12CC[C@H](O)C[C@@H]1CC[C@@H]1[C@@H]2CC[C@]2(C)[C@@H](c3ccc(=O)oc3)CC[C@]12O

>  <pIC50>
6.33

$$$$
>  <smilesData>
CC(=O)O[C@H]1C[C@]2(O)[C@@H]3CC[C@@H]4C[C@@H](O)CC[C@]4(C)[C@H]3CC[C@]2(C)[C@H]1c1ccc(=O)oc1

>  <pIC50>
7.19

$$$$

I would be grateful if you could share the reported pIC50 for C[C@]12CCC(=O)C=C1CC[C@@H]1[C@@H]2CC[C@]2(C)[C@@H](c3ccc(=O)oc3)CC[C@]12O . 5.79

I would be grateful if you could share the reported pIC50 for C[C@]12CC[C@H]3[C@@H](CC[C@H]4C[C@@H](O)CC[C@@]43C=O)[C@@]1(O)CC[C@@H]2c1ccc(=O)oc1 . 6.47

I would be grateful if you could share the reported pIC50 for CC(=O)O[C@H]1CC[C@@]2(C)[C@H](CC[C@@H]3[C@@H]2[C@H](OC(C)=O)C(=O)[C@]2(C)[C@@H](c4ccc(=O)oc4)CC[C@]32O)C1 . 5.10

I would be grateful if you could share the reported pIC50 for C[C@@H]1O[C@@H](O[C@H]2CC[C@@]3(C)[C@H](CC[C@@H]4[C@@H]3[C@H](O)C[C@]3(C)[C@@H](c5ccc(=O)oc5)CC[C@]43O)C2)[C@H](O)[C@H](O)[C@H]1O . 8.30
